Target Or System: Mucor circinelloides ADH (McADH), SEQ ID NO: 39 (Mucor circinelloides, UniProt Q66UT6)
Sequence (Q66UT6 entry or part of it): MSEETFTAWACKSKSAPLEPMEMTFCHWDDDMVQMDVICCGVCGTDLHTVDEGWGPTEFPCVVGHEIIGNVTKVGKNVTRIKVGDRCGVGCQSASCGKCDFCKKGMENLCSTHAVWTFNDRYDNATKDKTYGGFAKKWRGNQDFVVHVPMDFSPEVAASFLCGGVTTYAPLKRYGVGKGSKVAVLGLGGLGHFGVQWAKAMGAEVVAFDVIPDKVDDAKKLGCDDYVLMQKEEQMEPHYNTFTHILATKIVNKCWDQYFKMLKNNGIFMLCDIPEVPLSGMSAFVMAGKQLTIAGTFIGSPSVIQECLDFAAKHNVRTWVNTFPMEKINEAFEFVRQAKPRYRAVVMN
Reported Metric: Ki (mM)
One number for each entry, in mM.

# input Can you look up the measured Ki of CC(C)CO for me?
# output 79

====

Target Or System: Saccharomyces cerevisiae ADH7 (ScADH7), SEQ ID NO: 23 (Saccharomyces cerevisiae, UniProt P25377)
Sequence (P25377 whole entry): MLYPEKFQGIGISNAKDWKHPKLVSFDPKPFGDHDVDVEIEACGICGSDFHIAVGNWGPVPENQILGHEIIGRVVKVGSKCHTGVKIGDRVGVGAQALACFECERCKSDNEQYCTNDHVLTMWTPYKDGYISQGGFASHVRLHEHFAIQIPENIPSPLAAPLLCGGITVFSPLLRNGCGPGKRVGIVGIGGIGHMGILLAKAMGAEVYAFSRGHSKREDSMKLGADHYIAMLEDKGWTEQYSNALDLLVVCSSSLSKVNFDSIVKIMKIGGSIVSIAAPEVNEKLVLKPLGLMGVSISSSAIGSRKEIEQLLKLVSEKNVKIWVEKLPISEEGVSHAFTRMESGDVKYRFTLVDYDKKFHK
Reported Metric: pKi
Numbers only, as −log10 of the molar value.

# input Fill in the blank: the reported pKi of CC(C)CO [isobutanol, 2-methylpropan-1-ol] is ____.
# output 1.06

====

Target Or System: UniProtKB B8ELZ1
Sequence (B8ELZ1 1-345): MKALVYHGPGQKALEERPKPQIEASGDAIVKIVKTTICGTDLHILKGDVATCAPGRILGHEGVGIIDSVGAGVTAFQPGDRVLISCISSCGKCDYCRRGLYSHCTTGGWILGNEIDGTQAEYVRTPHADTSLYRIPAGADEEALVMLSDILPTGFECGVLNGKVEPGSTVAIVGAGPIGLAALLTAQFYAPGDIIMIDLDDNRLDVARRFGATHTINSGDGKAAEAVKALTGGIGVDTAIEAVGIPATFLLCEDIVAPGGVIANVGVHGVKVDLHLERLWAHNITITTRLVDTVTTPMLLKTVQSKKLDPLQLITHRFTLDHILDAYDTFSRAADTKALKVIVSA
Reported Metric: Ki (mM)
One number for each entry, in mM.

# input Data request, read-out Ki, for CC(C)CO
# output 19

====

Target Or System: Phenylobacterium zucineum HLK1 ADH (PzADH), SEQ ID NO: 34 (Phenylobacterium zucineum)
Sequence (B4RIA4 1-345): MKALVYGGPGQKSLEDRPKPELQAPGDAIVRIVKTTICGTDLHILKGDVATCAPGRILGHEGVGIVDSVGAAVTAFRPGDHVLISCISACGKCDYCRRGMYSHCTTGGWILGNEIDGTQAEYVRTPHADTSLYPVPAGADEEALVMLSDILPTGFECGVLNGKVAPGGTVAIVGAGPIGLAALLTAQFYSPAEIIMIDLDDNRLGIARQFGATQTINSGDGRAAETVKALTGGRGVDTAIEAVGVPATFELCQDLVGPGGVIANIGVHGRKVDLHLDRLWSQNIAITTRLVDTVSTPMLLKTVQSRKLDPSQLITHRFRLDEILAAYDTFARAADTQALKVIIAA
Reported Metric: Ki
Write the figure, then the unit, nothing else.

# input I am curious: what Ki value has been reported for CC(C)CO ?
# output 13 mM
